procedure summary: chemical genetic growth profiling, strain panel (AID 1159580);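 further: tested at 20 µM; growth read once vehicle control cultures reached saturation at 30 °C; 1 = growth at the plate median or of vehicle wells; lower values mean less growth of the strain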
condition description: S. cerevisiae deletion strains, growth OD, locus YCL016C, strain dcc1, active compounds read low
Out of some 5,500 compounds screened, about 2,000 (36%) were called active. Inconclusive results (about 18%) are left out. This is one part of the list.
normalized growth for assorted molecules
readout name: normalized growth

CC12CC3CC(C)(C1)CC(N)(C3)C2: 1.01
CNCCCN1c2ccccc2CCc2ccccc21: 0.988
CCN(CCCc1ccccc1)CCCc1ccccc1: 0.939
CN(C)CCOC(=O)COc1ccc(Cl)cc1: 0.969
NNCCc1ccccc1: 1.01
CC1=C2[C@H]3OC(=O)[C@@H](C)[C@@H]3CC[C@@]2(C)C=CC1=O: 0.995
CC(CN(C)C)CN1c2ccccc2CCc2ccccc21 (stereo not drawn): 0.974
C[C@@H]1CC2C3CCC4=CC(=O)C=C[C@]4(C)[C@@]3(F)[C@@H](O)C[C@]2(C)[C@H]1C(=O)CO (stereo partly drawn): 1.01
CN(C)N=Nc1nc[nH]c1C(N)=O: 0.957
C[C@H](N)[C@H](O)c1cccc(O)c1: 1.02
CC(CN(C)C)CN1c2ccccc2Sc2ccccc21 (stereo not drawn): 1.01
COc1ccc(C(=O)N2CCCC2=O)cc1: 0.976
Cc1ncc([N+](=O)[O-])n1CC(C)O (stereo not drawn): 0.975

----------
procedure summary: chemical genetic growth profiling, strain panel (AID 1159580);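 further: tested at 20 µM; growth read once vehicle control cultures reached saturation at 30 °C; 1 = growth at the plate median or of vehicle wells; lower values mean less growth of the strain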
condition description: S. cerevisiae deletion strains, growth OD, locus YLR342W, strain FKS1 (second series)
In all, about 5,500 compounds went through this assay and about 2,000 (36%) were called active. Another 18% or so got no clear call; they are omitted. Rule as the data show it: active = normalized growth mostly below about 0.91 (no sharp cut-off); inconclusive = no clear call, values can overlap the other calls; inactive = mostly above about 0.92. This is one part of the list.
Labels: active, inactive

C[C@H](N)[C@H](O)c1ccccc1: inactive
CC(=O)O[C@H]1C[C@@H](OC(C)=O)C(C)(C)C2CC(=O)[C@]3(C)C(CC[C@@]4(C)[C@H](c5ccoc5)OC(=O)[C@H]5O[C@]543)[C@]21C (some centres undefined): inactive
NC(N)=NCCCC(NC(=O)C(N)Cc1ccc(O)cc1)C(=O)O (centres undefined): inactive
O=c1cc(-c2ccccc2)oc2c(O)c(O)ccc12: active
N[C@@H](Cc1cc(I)c(Oc2ccc(O)c(I)c2)c(I)c1)C(=O)O: inactive
CN(C)N=Nc1nc[nH]c1C(N)=O: inactive
Cc1cccc(Nc2ccncc2S(=O)(=O)NC(=O)NC(C)C)c1: inactive
CC12CC3CC(C)(C1)CC(N)(C3)C2: inactive
COc1cc([C@H]2Oc3cc([C@H]4Oc5cc(O)cc(O)c5C(=O)[C@@H]4O)ccc3O[C@@H]2CO)ccc1O: inactive
CC(CN(C)C)CN1c2ccccc2Sc2ccccc21 (centres undefined): inactive
C=C[C@H]1CN2CC[C@H]1C[C@@H]2[C@H](O)c1ccnc2ccccc12: inactive
COc1cc(C)c(C(=O)Oc2cc(C)c(C(=O)O)c(O)c2C)c(OC)c1C: inactive
c1ccc2c(c1)CN1CCCC1=N2: inactive
COc1cc(S(C)=O)ccc1-c1nc2ncccc2[nH]1 (centres undefined): inactive
Nc1ccn(C2O[C@H](CO)[C@@H](O)[C@H]2O)c(=O)n1 (some centres undefined): inactive
O=c1cc(-c2ccccc2)oc2cc(O)c(O)c(O)c12: active
CC(=O)Nc1ccccc1: inactive
C[C@]12C=CC(=O)C=C1CCC1C3C[C@@H](O)[C@](O)(C(=O)CO)[C@@]3(C)C[C@H](O)[C@@]12F (some centres undefined): inactive
O=C(Nc1ccccc1)Nc1ccccc1: inactive
CC1CCC2(OC1)OC1CC3C4CCC5C[C@@H](O)CCC5(C)C4=CCC3(C)C1[C@@H]2C (some centres undefined): inactive
CC(=O)OCC(=O)[C@@]1(O)[C@H](OC(C)=O)CC2C3CCC4=CC(=O)C=C[C@]4(C)[C@@]3(F)[C@@H](O)C[C@@]21C (some centres undefined): inactive
COc1ccc(C(=O)CC(=O)c2ccc(C(C)(C)C)cc2)cc1: inactive
CN(C)C(=O)Nc1ccc(Cl)c(Cl)c1: inactive
C[C@H](CCC(=O)O)[C@H]1CCC2C3C(CC[C@@]21C)[C@@]1(C)CC[C@@H](O)C[C@H]1C[C@@H]3O (some centres undefined): inactive
COc1c(Cl)ccc(Cl)c1C(=O)O: inactive
CCN(CC)C(C)CN1c2ccccc2Sc2ccccc21 (centres undefined): inactive
CC[C@H](CCC(C)[C@H]1CCC2C3CCC4C[C@@H](O)CC[C@]4(C)C3CC[C@@]21C)C(C)C (some centres undefined): inactive
COC(=O)CCC(C)[C@H]1CCC2C3C(C[C@H](O)[C@@]21C)[C@@]1(C)CC[C@@H](O)C[C@H]1C[C@H]3O (some centres undefined): inactive
CC(C)CCCC(C)C1CCC2C3CC[C@H]4CCCC[C@]4(C)C3CC[C@]12C (some centres undefined): inactive
CC(CCC(=O)O)[C@H]1CCC2C3CC[C@@H]4C[C@H](O)CC[C@]4(C)C3CC[C@@]21C (some centres undefined): active
CC(CN(C)C)CN1c2ccccc2CCc2ccccc21 (centres undefined): inactive
CCC(=O)c1ccc2c(c1)N(CC(C)N(C)C)c1ccccc1S2 (centres undefined): inactive
COc1ccc(C(=O)N2CCCC2=O)cc1: inactive
N[C@@H]1[C@@H](O)[C@H](O)[C@@H](CO)O[C@H]1O: inactive
CN1CCN(C2=Nc3ccccc3Oc3ccc(Cl)cc32)CC1: inactive
S=P(N1CC1)(N1CC1)N1CC1: inactive
O=C(O)c1ccccc1C(=O)Nc1ccc(S(=O)(=O)Nc2nccs2)cc1: inactive
COC(=O)CCC(=O)O[C@H]1CCC2(C)C(CCC3C2C(=O)[C@@H](O)C2(C)C3CC3OC4(CCC(C)CO4)[C@@H](C)C32)C1 (some centres undefined): inactive
COC(=O)c1c(C)cc(OC(=O)c2c(C)cc(O)c(C=O)c2O)c(C)c1O: inactive
COc1cc(OC)c(OC)cc1C=O: inactive
COC(=O)c1c(C)cc(OC(=O)c2c(C)c(Cl)c(O)c(C=O)c2O)c(C)c1O: inactive
CC(CN1c2ccccc2Sc2ccccc21)N(C)C (centres undefined): inactive
Cc1cc(=O)oc2c(O)c(O)ccc12: inactive
CCCCCC1C(=O)CCC1CC(=O)O (centres undefined): inactive
